Biological target: T1, O12-bP
T1 chain: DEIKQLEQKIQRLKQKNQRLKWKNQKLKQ
Assay: two-hybrid library CCNG1;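 also: natural log of median RNA to DNA barcode read ratio; higher means stronger binding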
measurementKind: interaction score
One number for each entry.

Check out these entries, answers already filled in.
>  <binder>
DKNKQLKQENQRLEQEIQRLEWEIQKLEQ [O1-bP]

>  <interaction score>
-1.11

$$$$
>  <binder>
DEIKQLEQKIQRLKQKNQRLKWKNQKLKQ [O12-bP]

>  <interaction score>
-0.0984

$$$$
>  <binder>
DKIKQLKQEIQRLEQENQRLEWENQKLEQ [O11-bP]

>  <interaction score>
0.837

$$$$

Now turn to the next binder.
Let me know recorded interaction score for DKNKQLKQENQRLEQKIQRLKWKIQKLKQ [O10-bP] , thanks.
-1.28
